- Test system: L1210 leukemia ip in BDF1 mice, survival T/C
- Run description: NCI In Vivo Anticancer Drug Screen. Data for tumor model L1210 Leukemia (intraperitoneal) in B6D2F1 (BDF1) mice
- Setup conditions: endpoint: mean survival time; dose: 400.0 mg/kg/injection; schedule: Q04DX003 (ip); vehicle: saline with Tween-80; higher = longer survival
Inconclusive results and toxic doses are left out.
Endpoint label: T/C

Compound	Reading
COC(=O)C1C=Cc2ccccc21 (stereo unspecified)	102 % of control
COC(=O)C1CCC2c3ccccc3C(C1)c1ccccc12 (stereo unspecified)	93 % of control
CCCCCCCCC(=O)CCCCCC	101 % of control
CCC(O)(CC(=O)O)c1ccccc1 (stereo unspecified)	105 % of control
Clc1ccc(NC2=NCCO2)cc1Cl	94 % of control
O=S(CCO)c1ccc(Cl)cc1 (stereo unspecified)	100 % of control
O=C(N/N=C/c1ccccc1O)c1ccccc1O	93 % of control
Cc1ccc(S(=O)(=O)OCC2OCC(O)C(O)C2O)cc1 (stereo unspecified)	86 % of control
CCn1c(CC(O)(C(F)(F)F)C(F)(F)F)nc2ccccc21	101 % of control
O=C(N=C(c1ccccc1)c1ccccc1)c1ccccc1	88 % of control
CN(C)/C(=C\C(=O)c1ccccc1)c1ccccc1	86 % of control
O=C(NC(CO)C(=O)OCc1ccccc1)OCc1ccccc1 (stereo unspecified)	90 % of control
Sc1ccccc1	94 % of control
CC1CCC=C2C(=O)C3OC(C)(C)C(C3O)C21C (stereo unspecified)	90 % of control
CC(=N\O)/C(=N\O)C(=O)c1ccccc1	98 % of control
CCOC(CN=CC1CCC=CO1)OCC (stereo unspecified)	95 % of control
O=P(O)(O)Cc1cccc2ccccc12	96 % of control
CC(C)COC(=O)c1cc(O)c(O)c(O)c1	95 % of control
CC1(C)CC(C(N)=O)C(=O)O1 (stereo unspecified)	101 % of control
O=C(C1C2CCC(C2)C1C(=O)N1CCCCC1)N1CCCCC1 (stereo unspecified)	100 % of control
CC(=O)Cc1nc(N)nc(Nc2ccc(Cl)c(Cl)c2)n1	96 % of control

Cited source for all entries: PubChem BioAssay AID248
